Collected MIC values appear next to each entry.
Tested on: Pasteurella multocida
experiment: Minimum inhibitory concentration against Pasteurella multocida
Format: functional
Write the quantity with the unit trailing the number.

Query MIC on Pasteurella multocida for CC[C@H]1OC(=O)[C@H](C)[C@H]2OC3(CCN(C(=O)c4c[nH]c5ccccc45)CC3)O[C@](C)(C[C@@H](C)CN[C@H](C)[C@@H](O)[C@]1(C)O)[C@H](O[C@@H]1O[C@H](C)C[C@H](N(C)C)[C@H]1O)[C@H]2C
0.1 µg/mL

Find the measured MIC: item CC[C@H]1OC(=O)[C@H](C)[C@H]2OC3(CCN(C(=O)c4cccs4)CC3)O[C@](C)(C[C@@H](C)CN(C)[C@H](C)[C@@H](O)[C@]1(C)O)[C@H](O[C@@H]1O[C@H](C)C[C@H](N(C)C)[C@H]1O)[C@H]2C , target or system Pasteurella multocida.
0.05 µg/mL

Checklist item: MIC tested on Pasteurella multocida, entry CC[C@H]1OC(=O)[C@H](C)[C@H]2OC3(CCN(CCc4ccc(Cl)cc4)CC3)O[C@](C)(C[C@@H](C)CN[C@H](C)[C@@H](O)[C@]1(C)O)[C@H](O[C@@H]1O[C@H](C)C[C@H](N(C)C)[C@H]1O)[C@H]2C , value?
0.01 µg/mL

Quick check: MIC on Pasteurella multocida, item CC[C@H]1OC(=O)[C@H](C)[C@H]2OC3(CCN(C(=O)c4cnc5ccccc5c4)CC3)O[C@](C)(C[C@@H](C)CN[C@H](C)[C@@H](O)[C@]1(C)O)[C@H](O[C@@H]1O[C@H](C)C[C@H](N(C)C)[C@H]1O)[C@H]2C ?
0.1 µg/mL

// lookup MIC | system=Pasteurella multocida | key= CC[C@H]1OC(=O)[C@H](C)[C@H]2OC3(CCN(CCc4ccccc4)CC3)O[C@](C)(C[C@@H](C)CN(C)[C@H](C)[C@@H](O)[C@]1(C)O)[C@H](O[C@@H]1O[C@H](C)C[C@H](N(C)C)[C@H]1O)[C@H]2C
0.02 µg/mL

What reported MIC corresponds to CC[C@H]1OC(=O)[C@H](C)[C@H]2OC3(CCN(C(=O)c4ccco4)CC3)O[C@](C)(C[C@@H](C)CN[C@H](C)[C@@H](O)[C@]1(C)O)[C@H](O[C@@H]1O[C@H](C)C[C@H](N(C)C)[C@H]1O)[C@H]2C on Pasteurella multocida?
0.05 µg/mL

// fetch Pasteurella multocida MIC for CC[C@H]1OC(=O)[C@H](C)[C@H]2OC3(CCN(C(=O)c4cccnc4)CC3)O[C@](C)(C[C@@H](C)CN[C@H](C)[C@@H](O)[C@]1(C)O)[C@H](O[C@@H]1O[C@H](C)C[C@H](N(C)C)[C@H]1O)[C@H]2C
0.1 µg/mL

Record CC[C@H]1OC(=O)[C@H](C)[C@H]2OC3(CCN(CCc4ccnc5ccccc45)CC3)O[C@](C)(C[C@@H](C)CN(C)[C@H](C)[C@@H](O)[C@]1(C)O)[C@H](O[C@@H]1O[C@H](C)C[C@H](N(C)C)[C@H]1O)[C@H]2C : what is its MIC with Pasteurella multocida?
0.05 µg/mL

Form field - read-out: MIC; system: Pasteurella multocida; submitted item: CC[C@H]1OC(=O)[C@H](C)[C@H]2OC3(CCN(CCc4cccc(OC)c4)CC3)O[C@](C)(C[C@@H](C)CN[C@H](C)[C@@H](O)[C@]1(C)O)[C@H](O[C@@H]1O[C@H](C)C[C@H](N(C)C)[C@H]1O)[C@H]2C
0.03 µg/mL

Under Pasteurella multocida: MIC value of CC[C@H]1OC(=O)[C@H](C)[C@H]2OC3(CCN(C(=O)c4cccnc4Cl)CC3)O[C@](C)(C[C@@H](C)CN[C@H](C)[C@@H](O)[C@]1(C)O)[C@H](O[C@@H]1O[C@H](C)C[C@H](N(C)C)[C@H]1O)[C@H]2C ?
0.1 µg/mL

Notebook entry, Pasteurella multocida assay: MIC of CC[C@H]1OC(=O)[C@H](C)[C@H]2OC3(CCN(CCc4ccnc5ccccc45)CC3)O[C@](C)(C[C@@H](C)CN[C@H](C)[C@@H](O)[C@]1(C)O)[C@H](O[C@@H]1O[C@H](C)C[C@H](N(C)C)[C@H]1O)[C@H]2C = ?
0.05 µg/mL

For the record CC[C@H]1OC(=O)[C@H](C)[C@H]2OC3(CCN(CCc4ccc(C#N)cc4)CC3)O[C@](C)(C[C@@H](C)CN(C)[C@H](C)[C@@H](O)[C@]1(C)O)[C@H](O[C@@H]1O[C@H](C)C[C@H](N(C)C)[C@H]1O)[C@H]2C , what value of MIC is listed for Pasteurella multocida?
0.03 µg/mL

###

Test system: Staphylococcus aureus
experiment: Minimum inhibitory concentration against Staphylococcus aureus
Type: functional
readout-kind: MIC (µg/mL)
Numbers only; they are read as µg/mL.

Some compounds with known MIC results, for comparison:
1) CC[C@H]1OC(=O)[C@H](C)[C@H]2OC3(CCN(CCc4ccnc5ccccc45)CC3)O[C@](C)(C[C@@H](C)CN[C@H](C)[C@@H](O)[C@]1(C)O)[C@H](O[C@@H]1O[C@H](C)C[C@H](N(C)C)[C@H]1O)[C@H]2C = 0.2
2) CC[C@H]1OC(=O)[C@H](C)[C@H]2OC3(CCN(CCc4ccc5ccccc5n4)CC3)O[C@](C)(C[C@@H](C)CN[C@H](C)[C@@H](O)[C@]1(C)O)[C@H](O[C@@H]1O[C@H](C)C[C@H](N(C)C)[C@H]1O)[C@H]2C = 0.2

What does the data say about its MIC? Entry: CC[C@H]1OC(=O)[C@H](C)[C@H]2OC3(CCN(C(=O)c4cccc(O)n4)CC3)O[C@](C)(C[C@@H](C)CN[C@H](C)[C@@H](O)[C@]1(C)O)[C@H](O[C@@H]1O[C@H](C)C[C@H](N(C)C)[C@H]1O)[C@H]2C
3.13

Need MIC of CC[C@H]1OC(=O)[C@H](C)[C@H]2OC3(CCN(C(=O)c4cnc5ccccc5c4)CC3)O[C@](C)(C[C@@H](C)CN(C)[C@H](C)[C@@H](O)[C@]1(C)O)[C@H](O[C@@H]1O[C@H](C)C[C@H](N(C)C)[C@H]1O)[C@H]2C , thanks.
0.39

###

Tested on: Staphylococcus aureus
experiment: Minimum inhibitory concentration against Staphylococcus aureus
Type: functional
// reported MIC for each item listed
Answer with a number only, understood to be in µg/mL.

Some solved cases for reference:
1. CC[C@H]1OC(=O)[C@H](C)[C@H]2OC3(CCN(CCc4ccccc4OC)CC3)O[C@](C)(C[C@@H](C)CN(C)[C@H](C)[C@@H](O)[C@]1(C)O)[C@H](O[C@@H]1O[C@H](C)C[C@H](N(C)C)[C@H]1O)[C@H]2C = 0.39
2. CC[C@H]1OC(=O)[C@H](C)[C@H]2OC3(CCN(C(=O)c4ccc[nH]4)CC3)O[C@](C)(C[C@@H](C)CN[C@H](C)[C@@H](O)[C@]1(C)O)[C@H](O[C@@H]1O[C@H](C)C[C@H](N(C)C)[C@H]1O)[C@H]2C = 0.78
3. CC[C@H]1OC(=O)[C@H](C)[C@H]2OC3(CCN(C(=O)c4cnccn4)CC3)O[C@](C)(C[C@@H](C)CN[C@H](C)[C@@H](O)[C@]1(C)O)[C@H](O[C@@H]1O[C@H](C)C[C@H](N(C)C)[C@H]1O)[C@H]2C = 1.56
4. CC[C@H]1OC(=O)[C@H](C)[C@H]2OC3(CCN(CCc4ccccc4OC)CC3)O[C@](C)(C[C@@H](C)CN[C@H](C)[C@@H](O)[C@]1(C)O)[C@H](O[C@@H]1O[C@H](C)C[C@H](N(C)C)[C@H]1O)[C@H]2C = 0.39
5. CC[C@H]1OC(=O)[C@H](C)[C@H]2OC3(CCN(C(=O)c4ccccn4)CC3)O[C@](C)(C[C@@H](C)CN[C@H](C)[C@@H](O)[C@]1(C)O)[C@H](O[C@@H]1O[C@H](C)C[C@H](N(C)C)[C@H]1O)[C@H]2C = 0.78
6. CC[C@H]1OC(=O)[C@H](C)[C@H]2OC3(CCN(Cc4ccc(-c5ccccc5)cc4)CC3)O[C@](C)(C[C@@H](C)CN(C)[C@H](C)[C@@H](O)[C@]1(C)O)[C@H](O[C@@H]1O[C@H](C)C[C@H](N(C)C)[C@H]1O)[C@H]2C = 0.2

Please find the next compound below.
Requested read-out: MIC. Entry: CC[C@H]1OC(=O)[C@H](C)[C@H]2OC3(CCN(Cc4ccccn4)CC3)O[C@](C)(C[C@@H](C)CN(C)[C@H](C)[C@@H](O)[C@]1(C)O)[C@H](O[C@@H]1O[C@H](C)C[C@H](N(C)C)[C@H]1O)[C@H]2C
0.78
